meta.source: ChEMBL document CHEMBL1128900

Target chain: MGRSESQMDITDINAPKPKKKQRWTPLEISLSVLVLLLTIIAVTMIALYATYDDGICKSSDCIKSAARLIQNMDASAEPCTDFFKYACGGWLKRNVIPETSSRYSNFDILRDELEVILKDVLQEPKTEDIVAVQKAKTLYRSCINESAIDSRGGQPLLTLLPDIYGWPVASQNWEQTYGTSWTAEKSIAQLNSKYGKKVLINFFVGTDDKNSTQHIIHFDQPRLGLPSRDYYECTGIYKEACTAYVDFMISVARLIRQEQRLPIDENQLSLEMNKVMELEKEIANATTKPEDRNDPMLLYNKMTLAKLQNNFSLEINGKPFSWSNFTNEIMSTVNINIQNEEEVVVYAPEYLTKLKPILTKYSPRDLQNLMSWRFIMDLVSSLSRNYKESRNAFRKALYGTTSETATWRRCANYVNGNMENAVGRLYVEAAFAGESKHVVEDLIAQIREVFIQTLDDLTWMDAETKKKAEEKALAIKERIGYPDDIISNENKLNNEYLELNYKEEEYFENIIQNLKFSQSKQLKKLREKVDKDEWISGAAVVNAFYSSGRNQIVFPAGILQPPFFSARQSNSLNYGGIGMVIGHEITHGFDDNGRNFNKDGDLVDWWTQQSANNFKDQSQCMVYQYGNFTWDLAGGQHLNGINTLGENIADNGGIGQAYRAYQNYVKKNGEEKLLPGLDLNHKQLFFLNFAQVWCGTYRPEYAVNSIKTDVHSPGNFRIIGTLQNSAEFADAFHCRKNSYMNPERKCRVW
recorded metric: IC50

Query: So what's the measured IC50 for this one? "O=P(O)(O)CN[C@@H](Cc1ccc(-c2ccccc2)cc1)c1nnnn1Cc1ccccc1"
Reply: > 1 µM

Query: Item "O=P(O)(O)CN[C@@H](CCc1ccccc1)c1nnn[nH]1" has what recorded IC50?
Reply: > 10 µM

Query: Name the reported IC50 value associated with the compound "O=C(O)[C@H](Cc1ccc(-c2ccccc2)cc1)NCCP(=O)(O)O"
Reply: > 10 µM
